test system: OVCAR-5 ovarian; experiment: NCI tumour cell line growth inhibition, 48 h
In this section we review reported TGI values for a set of compounds.

So, `O=C(c1ccco1)c1nc2ccc(C(F)(F)F)cc2[n+]([O-])c1C(F)(F)F` ? Its TGI was > 100 µM

So, CN1C(=O)C2C(=O)N(Cc3ccccc3)CC(=O)N2c2cccnc21 (stereo unspecified) ? Its TGI was > 100 µM

So, N#CC(C(=N/O)/C(=N/O)C(C#N)c1ccc(Cl)cc1)c1ccc(Cl)cc1 (stereo unspecified) ? Its TGI was > 100 µM

So, `COc1cccc(-c2cc(=O)c3cc(N(C)C)ccc3[nH]2)c1` ? Its TGI was > 100 µM

So, COc1ccc(C(C#N)NNC(=O)c2ccccc2O)cc1OC (stereo unspecified) ? Its TGI was > 100 µM

So, `COc1ccc2[nH]c(O)c(/C=c3/cc4c(c(-c5cc(OC)c(OC)c(OC)c5)n3)=Nc3ccccc3-4)c2c1` ? Its TGI was > 100 µM

So, CCCCCCCCCC[C@@H](O)[C@@H]1CC[C@H]([C@H]2CC[C@@H]([C@@H](O)CCCCCCCCCC[C@H]3CC(CC(C)=O)C(=O)O3)O2)O1 (stereo partly specified) ? Its TGI was 74.3 µM
